biological target: Nicotinamide N-methyltransferase (Homo sapiens); assay: Confirmatory Screen for Target Class Profiling of Small Molecule Inhibitors of Methyltransferases (AID 1745852); settings: MTase-Glo luminescence, SAH detection, recombinant enzyme; measured here: NNMT max response; stronger effect = lower value
Observable: activity (%)
Just the number please, in %, no unit attached.

What activity value was documented for this compound, `COc1ccc(-c2cc3c(cn2)CN(C)CCN3)cn1` ? -5.95

What activity value was documented for this compound, `COc1ccc(-c2cc([C@H]3CN4CC[C@H]3C[C@@H]4CN)nc(C)n2)cc1OC` ? -94.2

What activity value was documented for this compound, `NC(=O)c1ccc(N2CC3CCC(C2)N3CC(F)(F)F)nn1` ? -22.1

What activity value was documented for this compound, CNC1CCc2ccccc21 (stereo not given) ? -95.4

What activity value was documented for this compound, `C=C[C@H]1CN2CC[C@H]1C[C@@H]2CNC(=O)Nc1ccc(Br)cc1` ? -5.4

* * *

test: qHTS assay for small molecule agonists of the antioxidant response element (ARE) signaling pathway measured by Nrf2-dependant transcriptional activity - cell viability counter screen (AID 720653); settings: ARE-bla HepG2 viability, CellTiter-Glo ATP luminescence, 16 h; stronger effect = lower value; further: on the % scale 0 is the no-effect control and ±100 the full control effect
Results filed as inconclusive are left out.
Exercise: state measured max response for each of the compounds provided.
Just the number please, in %, no unit attached.

What max response value was documented for this compound, CCS(=O)CCSP(=O)(OC)OC (stereo unspecified) ? -6.55

What max response value was documented for this compound, `CC(C)N1C(=O)c2ccccc2NS1(=O)=O` ? 7.65

What max response value was documented for this compound, `CNC(=O)Oc1ccccc1OC(C)C` ? -4.9

What max response value was documented for this compound, `c1ccc2c(c1)CCCC2` ? -5.84

What max response value was documented for this compound, OCC(Br)CBr (stereo unspecified) ? -0.194

What max response value was documented for this compound, `C=CCOC(=O)c1ccccc1N` ? 4.08

What max response value was documented for this compound, `Cc1ccc2ccccc2c1` ? -3.38

What max response value was documented for this compound, `CC(C)OC(=O)Nc1cccc(Cl)c1` ? -10.2

What max response value was documented for this compound, `CCCCSP(=O)(SCCCC)SCCCC` ? 12.3

What max response value was documented for this compound, `Nc1ccc(Br)cc1` ? -4.77

What max response value was documented for this compound, `CCSC(=O)Cl` ? 0.254

What max response value was documented for this compound, `C=CCc1ccc(OC)cc1` ? 2.85

What max response value was documented for this compound, `C=C(Cl)Cl` ? -2.66

What max response value was documented for this compound, `COc1nc(NC(C)C)nc(NC(C)C)n1` ? 5.54

What max response value was documented for this compound, ClC1=C(Cl)C2(Cl)C3C4CC(C5OC45)C3C1(Cl)C2(Cl)Cl (stereo unspecified) ? -3.29

What max response value was documented for this compound, `O=C(O)COc1cc(Cl)c(Cl)cc1Cl` ? -9.62

* * *

experiment: Primary qHTS for Huh7 cytotoxicity: counterscreen for inhibitors of MERS-S pseudotyped particle cell entry (AID 1479147); settings: cell viability read-out; series mostly up to 57.1 µM
Results filed as inconclusive are left out. Active and inactive are the calls of the source. The call rests on the fitted dose curve.
Observable: outcome

Example results:
NS(=O)(=O)c1cc2c(cc1Cl)NC(Cc1ccccc1)NS2(=O)=O (stereo not given) : inactive
CC(=O)OCC(=O)[C@@]12OC3(CCCC3)O[C@@H]1C[C@H]1[C@@H]3CCC4=CC(=O)C=C[C@]4(C)[C@@]3(F)[C@@H](O)C[C@@]12C : inactive
CN(C)C(=O)NC1CCC(CCN2CCN(c3cccc(Cl)c3Cl)CC2)CC1 (stereo not given) : inactive
CC1(C)[C@@H]2CC[C@@]1(C)[C@H](OC(=O)CSC#N)C2 : inactive

# evaluate next
What outcome value was documented for this compound, `COc1ccc(CC(C)(C)NC[C@H](O)c2cc(O)cc3c2OCC(=O)N3)cc1` ? inactive

* * *

assay: NCATS anti-infectives library activity on HEK293 viability as a counter-qHTS vs the C. elegans viability qHTS (AID 1745854); settings: HEK293 viability counter-screen; series mostly up to 41.8 µM;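 further: HEK293 cells exposed to compounds for 24 hr before the viability read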
Results filed as inconclusive are left out. Activity calls are given as the source filed them. Calls come from the whole dose curve; as a rule, active = well fitted cell-killing curve with a large enough effect; inconclusive = small, poorly fitted or top-dose-only effect; inactive = flat fitted curve, though single readings scatter.
Give one outcome, nothing more. List: active, inactive

Call for entry CC(=O)OC1C[C@H](O[C@@H]2C(O)C[C@H](O[C@@H]3C(O)C[C@@H](OC4CC[C@]5(C)C(CCC6C5CC(O)[C@@]5(C)C(C7=CC(=O)OC7)CC[C@@]65O)C4)OC3C)OC2C)O[C@H](C)[C@H]1O[C@H]1OC(CO)C(O)C(O)C1O (stereo partly drawn) : active

Call for entry `CC(=O)O[C@H]1[C@H]2[C@@H](OC(=O)Cc3ccccc3)[C@@H](C)C[C@]2(OC(C)=O)C(=O)/C(C)=C/[C@@H]2[C@H](CC[C@@]13CO3)C2(C)C` : inactive

Call for entry Nc1cccc(C(OCCN2CCCCC2)c2cc3nccc(C(=O)O)c3s2)c1 (stereo not drawn) : inactive

* * *

test: Cell Viability - HUV-EC-C (AID 542); conditions: HUV-EC-C endothelial cell viability, qHTS; series mostly up to 92.2 µM;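 further: cells exposed to compound for 40 hours; nearly all actives have a fitted effect of over 35% in size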
Records with an inconclusive call do not appear. Active and inactive are the calls of the source. Calls come from the whole dose curve; as a rule, active = well fitted cell-killing curve with a large enough effect; inconclusive = small, poorly fitted or top-dose-only effect, or effect the other way; inactive = flat fitted curve, though single readings scatter.
Give one outcome, nothing more. List: active, inactive

Call for entry `CCOc1ccc(N)cc1` : inactive

Call for entry `c1ccc(OP(Oc2ccccc2)Oc2ccccc2)cc1` : inactive

Call for entry `c1ccc2c(c1)CCCC2` : inactive

Call for entry `CCCCCCCCCc1ccc(O)cc1` : active

Call for entry `C=CCc1ccc2c(c1)OCO2` : inactive

Call for entry `C[C@]12CC[C@H]3[C@@H](CCC4=CC(=O)CC[C@@]43C)[C@@H]1CC[C@@H]2O` : inactive

Call for entry `ClC(Cl)=C(Cl)C(Cl)=C(Cl)Cl` : inactive

Call for entry `CN=C=S` : inactive

* * *

assay: Cytotoxicity counterscreen for inhibitors of SARS-CoV-2 cell entry (AID 1645845); details: cell viability (SARS-CoV-2 entry assay cells); series mostly up to 57.1 µM; further: nearly all actives have a fitted effect of over 50% in size; further: potency means the concentration at half of the fitted maximal effect
Records with an inconclusive call do not appear. Activity calls are given as the source filed them. Calls follow the shape of the full dose curve.
Observable: Potency

Example results:
O=C(c1ccc(F)c(F)c1Nc1ccc(I)cc1F)N1CC(O)([C@@H]2CCCCN2)C1 : 31.6 µM (active)
NCCS[As](SCCN)c1ccc(Nc2nc(N)nc(N)n2)cc1 : inactive
COc1cccc(-c2c(C)n(Cc3c(F)cccc3C(F)(F)F)c(=O)n(C[C@H](NCCCC(=O)O)c3ccccc3)c2=O)c1F : inactive
Cc1nc(NC(=O)N2CCCC2C(N)=O)sc1-c1ccnc(C(C)(C)C(F)(F)F)c1 (centres undefined) : inactive
O=C1N=C(N2CCOCC2)CN1c1ccc(Cl)cc1 : inactive

What Potency value was documented for this compound, `C[C@@H](Oc1cc(C(=O)Nc2ccc(C(=O)N3CCN(C)CC3)cc2)nnc1N)c1c(Cl)ccc(F)c1Cl` ? 28.2 µM (active)

What Potency value was documented for this compound, `O=C(C[C@@H]1C/C=C\CCC(=O)O[C@H](c2ccccc2)CNC1=O)NCc1ccc(Cl)cc1` ? inactive

What Potency value was documented for this compound, `OCCn1cc(-c2ccc3c(c2)CC/C3=N\O)c(-c2ccncc2)n1` ? inactive

What Potency value was documented for this compound, `OC[C@H]1O[C@@](CO)(O[C@H]2O[C@H](CO)[C@@H](O)[C@H](O)[C@H]2O)[C@@H](O)[C@@H]1O` ? inactive

* * *

system: 3D7; assay: qHTS profiling for inhibitors of Plasmodium falciparum proliferation (AID 504749); further: nearly all actives have a fitted effect of over 60% in size; details: P. falciparum in erythrocytes, SYBR Green DNA, 72 h; series mostly up to 28.7 µM
Results filed as inconclusive are left out. Activity calls are given as the source filed them. Calls follow the shape of the dose curve; as a rule, active = well fitted inhibition curve with a large enough effect; inconclusive = small, poorly fitted or top-dose-only effect; inactive = flat fitted curve, though single readings scatter.
Give one outcome, nothing more. List: active, inactive

Call for entry `C[C@]12CC[C@H]3[C@@H](CCC4=CC(=O)CC[C@@]43C)[C@@H]1CC[C@@H]2O` : inactive

Call for entry CNC(C)[C@@H](O)c1ccc(O)cc1 (stereo not given in full) : inactive

Call for entry `CC[C@]1(c2cccc(O)c2)CCCCN(C)C1` : inactive

Call for entry `C[C@@H]1O[C@H](O[C@@H]2C=C3CC[C@H]4[C@@H](CC[C@]5(C)[C@@H](c6ccc(=O)oc6)CC[C@]45O)[C@@]3(C)CC2)[C@@H](O)[C@H](O)[C@@H]1O` : inactive

Call for entry O=[As]O[As]=O (stereo not given) : active

Call for entry `CCN[C@]1(c2cccs2)CCCCC1=O` : inactive

Call for entry CC([C@H](O)c1ccccc1)N(C)C (stereo not given in full) : inactive

Call for entry `C[C@@]12CC[C@H]3[C@@H](CC[C@@H]4C[C@H]5S[C@H]5C[C@]43C)[C@H]1CC[C@H]2O` : inactive

Call for entry C[N+]1([O-])[C@@H]2CC[C@H]1CC(OC(=O)[C@@H](CO)c1ccccc1)C2 (stereo not given in full) : inactive

Call for entry `CN(C)[C@@H]1C(=O)C(C(N)=O)=C(O)[C@]2(O)C(=O)C3=C(O)c4c(O)ccc(Cl)c4[C@](C)(O)[C@H]3C[C@@H]12` : inactive

Call for entry O=C1C=C2C=CC3C[C@@]2(O1)C1CCCCN31 (stereo not given in full) : active

Call for entry `CC(C)c1c(CN(C)[C@@H](C)Cc2ccccc2)n(C)n(-c2ccccc2)c1=O` : inactive

Call for entry COc1cc2c(cc1OC)[C@@]13CCN4CC5=CCOC6CC(=O)N2C1[C@H]6[C@@H]5C[C@@H]43 (stereo not given in full) : inactive

Call for entry `CC(=O)OCC(=O)[C@@H]1CC[C@H]2[C@H]3CC[C@H]4C[C@@H](O)CC[C@]4(C)[C@@H]3C(=O)C[C@@]12C` : inactive

Call for entry `C#CCN(C)[C@@H](C)Cc1ccccc1` : inactive

Call for entry C[C@]12CC[C@H](O)CC1=CCC1C2CC[C@]2(C)C(=O)CC[C@@H]12 (stereo not given in full) : inactive

Call for entry `CC[C@@]1(c2ccc(N)cc2)CCC(=O)NC1=O` : inactive

Call for entry CC(C)(O)C1C2OC(=O)C1[C@]1(O)C[C@H]3O[C@]34C(=O)O[C@H]2[C@]14C (stereo not given in full) (tested in a mixture with another compound) : inactive

Call for entry C[C@H]1CN(C2CCC(C#N)(c3ccc(F)cc3)CC2)CC[C@@]1(C(=O)O)c1ccccc1 (stereo not given in full) : inactive

Call for entry `CC(C)N(CC[C@@](C(N)=O)(c1ccccc1)c1ccccn1)C(C)C` : inactive
